These data points were gathered from patent US20240024488A1.

- system: HiBit-BRM fusion protein (Homo sapiens, UniProt P51531)
- Construct: expressed in transfected cells
- Sequence (P51531 whole entry, the tested form may be a part): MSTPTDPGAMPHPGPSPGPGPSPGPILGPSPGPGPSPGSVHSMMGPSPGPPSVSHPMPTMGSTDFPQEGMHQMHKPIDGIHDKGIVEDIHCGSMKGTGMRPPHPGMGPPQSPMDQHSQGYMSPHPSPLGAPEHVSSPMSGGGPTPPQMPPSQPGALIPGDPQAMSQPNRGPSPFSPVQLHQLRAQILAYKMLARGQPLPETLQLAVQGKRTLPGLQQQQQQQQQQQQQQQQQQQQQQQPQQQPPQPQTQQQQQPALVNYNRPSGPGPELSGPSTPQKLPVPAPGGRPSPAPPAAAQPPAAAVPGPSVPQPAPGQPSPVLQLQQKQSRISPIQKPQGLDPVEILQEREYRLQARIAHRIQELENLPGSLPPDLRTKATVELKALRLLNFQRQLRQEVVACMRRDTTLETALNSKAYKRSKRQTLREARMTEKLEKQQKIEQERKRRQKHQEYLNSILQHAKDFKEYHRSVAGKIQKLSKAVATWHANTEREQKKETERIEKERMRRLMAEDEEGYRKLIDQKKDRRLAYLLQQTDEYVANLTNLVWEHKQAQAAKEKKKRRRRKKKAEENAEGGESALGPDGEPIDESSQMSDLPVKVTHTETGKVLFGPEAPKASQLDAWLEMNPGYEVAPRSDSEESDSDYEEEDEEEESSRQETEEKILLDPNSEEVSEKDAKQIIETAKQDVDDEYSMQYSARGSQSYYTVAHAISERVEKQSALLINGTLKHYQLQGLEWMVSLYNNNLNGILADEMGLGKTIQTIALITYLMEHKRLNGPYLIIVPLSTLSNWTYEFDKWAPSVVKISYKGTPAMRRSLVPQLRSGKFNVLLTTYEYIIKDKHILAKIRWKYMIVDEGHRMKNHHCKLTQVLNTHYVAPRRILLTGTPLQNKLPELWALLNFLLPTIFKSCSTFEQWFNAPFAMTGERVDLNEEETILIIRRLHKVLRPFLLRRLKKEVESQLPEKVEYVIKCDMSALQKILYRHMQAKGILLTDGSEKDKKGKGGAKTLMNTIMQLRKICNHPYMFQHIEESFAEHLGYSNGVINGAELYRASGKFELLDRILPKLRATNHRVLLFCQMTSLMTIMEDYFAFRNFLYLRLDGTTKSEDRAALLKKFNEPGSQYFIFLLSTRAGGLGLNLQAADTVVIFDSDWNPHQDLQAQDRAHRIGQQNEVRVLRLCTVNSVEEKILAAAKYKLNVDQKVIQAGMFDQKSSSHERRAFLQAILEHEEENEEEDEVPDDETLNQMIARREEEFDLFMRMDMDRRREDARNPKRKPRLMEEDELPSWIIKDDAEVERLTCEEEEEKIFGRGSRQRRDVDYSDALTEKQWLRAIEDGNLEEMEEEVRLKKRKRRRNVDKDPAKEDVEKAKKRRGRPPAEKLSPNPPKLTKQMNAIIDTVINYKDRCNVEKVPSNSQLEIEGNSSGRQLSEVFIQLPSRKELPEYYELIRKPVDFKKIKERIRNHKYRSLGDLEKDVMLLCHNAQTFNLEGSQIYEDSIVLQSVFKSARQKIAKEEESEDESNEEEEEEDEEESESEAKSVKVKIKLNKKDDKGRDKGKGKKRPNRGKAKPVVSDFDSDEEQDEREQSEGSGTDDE
- measurement notes: HiBiT-BRM cell-based degradation assay (Nano-Glo HiBiT Lytic Detection, 24 h)
- settings: HeLa cell line expressing HiBiT-BRM, read-out: BRM HiBit Degradation IC50
result type: DC50

compound	test value
Cc1ncsc1-c1ccc([C@H](C)NC(=O)[C@@H]2C[C@@H](O)CN2C(=O)[C@@H](c2cc(OCCN(C)C34CC(c5cc6cc(-c7ccccc7O)nnc6[nH]5)(C3)C4)no2)C(C)C)cc1 (racemic)	> 10 nM
Cc1ncsc1-c1ccc([C@H](C)NC(=O)[C@@H]2C[C@@H](O)CN2C(=O)[C@@H](c2cc(OCCN3CC(c4[nH]c5nnc(-c6ccccc6O)cc5c4C)C3)no2)C(C)C)cc1 (racemic)	< 10 nM
Cc1ncsc1-c1ccc([C@H](C)NC(=O)[C@@H]2C[C@@H](O)CN2C(=O)[C@@H](c2cc(OCCN3CC(C)(c4cc5cc(-c6ccccc6O)nnc5[nH]4)C3)no2)C(C)C)cc1 (racemic)	> 10 nM
Cc1ncsc1-c1ccc([C@H](C)NC(=O)[C@@H]2C[C@@H](O)CN2C(=O)[C@@H](c2cc(OCCCN3C[C@@H]4[C@H](C3)[C@H]4c3c(C)[nH]c4nnc(-c5ccccc5O)cc34)no2)C(C)C)cc1 (racemic)	< 10 nM
Cc1ncsc1-c1ccc([C@H](C)NC(=O)[C@@H]2C[C@@H](O)CN2C(=O)[C@@H](c2cc(N3CCN(C(=O)N4CC(c5cc6cc(-c7ccccc7O)nnc6[nH]5)C4)CC3)no2)C(C)C)cc1 (racemic)	> 10 nM
Cc1ncsc1-c1ccc([C@H](C)NC(=O)[C@@H]2C[C@@H](O)CN2C(=O)[C@@H](c2cc(N3C[C@@H]4C[C@H]3CN4C(=O)[C@H]3C[C@@]4(Cc5cc(-c6ccccc6O)nnc5N4)C3)no2)C(C)C)cc1 (racemic)	> 1000 nM
Cc1ncsc1-c1ccc([C@H](C)NC(=O)[C@@H]2C[C@@H](O)CN2C(=O)[C@@H](c2cc(OCCN[C@H]3CCc4[nH]c5nnc(-c6ccccc6O)cc5c4C3)no2)C(C)C)cc1 (single isomer, unassigned)	> 10 nM
Cc1ncsc1-c1ccc([C@H](C)NC(=O)[C@@H]2C[C@@H](O)CN2C(=O)[C@@H](c2cc(OCCN3CCC(c4c[nH]c5nnc(-c6ccccc6O)cc45)CC3)no2)C(C)C)cc1 (racemic)	> 10 nM
Cc1ncsc1-c1ccc([C@H](C)NC(=O)[C@@H]2C[C@@H](O)CN2C(=O)[C@@H](c2cc(OCCN3CCC[C@H](c4cc5cc(-c6ccccc6O)nnc5[nH]4)C3)no2)C(C)C)cc1 (racemic)	> 10 nM
Cc1ncsc1-c1ccc([C@H](C)NC(=O)[C@@H]2C[C@@H](O)CN2C(=O)[C@@H](c2cc(OCCNC(=O)C(=O)N3CC(c4c[nH]c5nnc(-c6ccccc6O)cc45)C3)no2)C(C)C)cc1 (racemic)	> 100 nM
Cc1ncsc1-c1ccc([C@H](C)NC(=O)[C@@H]2C[C@@H](O)CN2C(=O)[C@@H](c2cc(OCCN3CC(c4cc5cc(-c6ccccc6O)nnc5[nH]4)C3)no2)C(C)C)cn1 (single isomer, unassigned)	> 100 nM
Cc1ncsc1-c1ccc(C(C)NC(=O)C2CC(O)CN2C(=O)C(c2cc(OCCN3CC4C(C3)C4c3c(C)[nH]c4nnc(-c5ccccc5O)cc34)no2)C(C)C)cc1 (stereo not shown)	> 10 nM
Cc1ncsc1-c1ccc([C@H](C)NC(=O)[C@@H]2C[C@@H](O)CN2C(=O)[C@@H](c2onc(OCCN3CC(c4cc5cc(-c6ccccc6O)nnc5[nH]4)C3)c2Cl)C(C)C)cc1 (racemic)	> 10 nM
Cc1ncsc1-c1ccc([C@H](C)NC(=O)[C@@H]2C[C@@H](O)CN2C(=O)[C@@H](c2cc(OCCN(C)Cc3ccc(Cc4cc5cc(-c6ccccc6O)nnc5[nH]4)cc3)no2)C(C)C)cc1 (racemic)	> 10 nM
Cc1ncsc1-c1ccc([C@H](C)NC(=O)[C@@H]2C[C@@H](O)CN2C(=O)[C@@H](c2cc(N3CC(CN4CC(c5cc6cc(-c7ccccc7O)nnc6[nH]5)C4)C3)no2)C(C)C)cc1 (single isomer, unassigned)	> 10 nM
Cc1ncsc1-c1ccc([C@H](C)NC(=O)[C@@H]2C[C@@H](O)CN2C(=O)[C@@H](c2cc(OCCN3C[C@@H]4[C@H](C3)[C@H]4c3cc4cc(-c5cc(F)ccc5O)nnc4[nH]3)no2)C(C)C)cc1 (racemic)	> 10 nM
